target: GSK3β (H350L) (Homo sapiens (Human), UniProt P49841); assay: biochemical; details: GSK3β Ki (nM)
Sequence (P49841 whole entry, stated change not applied): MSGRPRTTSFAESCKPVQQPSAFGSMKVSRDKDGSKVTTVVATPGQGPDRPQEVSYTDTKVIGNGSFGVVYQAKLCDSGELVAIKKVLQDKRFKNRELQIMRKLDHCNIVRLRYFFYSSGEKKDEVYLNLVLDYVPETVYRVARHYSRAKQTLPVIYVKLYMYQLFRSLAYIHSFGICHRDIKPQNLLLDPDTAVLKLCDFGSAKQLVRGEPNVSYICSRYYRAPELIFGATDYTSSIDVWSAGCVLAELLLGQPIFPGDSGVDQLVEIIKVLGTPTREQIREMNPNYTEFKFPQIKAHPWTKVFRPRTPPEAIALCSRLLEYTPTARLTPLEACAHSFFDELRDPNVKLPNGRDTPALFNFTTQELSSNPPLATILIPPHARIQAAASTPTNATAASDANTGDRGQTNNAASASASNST
Under this convention, t denotes Ki strictly below 30 nM and f denotes Ki at or above 30 nM.

# TODO verify Ki < 30 nM strictly for this compound: COc1cc(CC(=O)Nc2cc([C@H]3CC[C@@H](OC(=O)NC(C)C(C)(F)F)C3)[nH]n2)ccn1 (single isomer, unassigned)
f

# TODO verify Ki < 30 nM strictly for this compound: Cc1c(CC(=O)Nc2cc([C@H]3CC[C@@H](OC(=O)NC(C)CC(F)(F)F)C3)[nH]n2)cnn1C (single isomer, unassigned)
f

# TODO verify Ki < 30 nM strictly for this compound: CCC(NC(=O)O[C@@H]1CC[C@H](c2cc(NC(=O)Cc3ccc(C)nc3)n[nH]2)C1)C(F)(F)F (single isomer, unassigned) [Example 399]
f

# TODO verify Ki < 30 nM strictly for this compound: `CC[C@H](C)NC(=O)O[C@@H]1CC[C@H](c2cc(NC(=O)Cc3ccno3)n[nH]2)C1`
f

# TODO verify Ki < 30 nM strictly for this compound: `COc1cnc(CC(=O)Nc2cc([C@H]3CC[C@@H](OC(=O)NC4(C)CC4)C3)[nH]n2)cn1`
f

# TODO verify Ki < 30 nM strictly for this compound: CCC(CO)CNC(=O)O[C@@H]1CC[C@H](c2cc(NC(=O)Cc3cc(C)no3)n[nH]2)C1 (single isomer, unassigned) [Example 524]
t

* * *

target: GSK3β (H350L) (Homo sapiens (Human), UniProt P49841); settings: read-out: GSK3β Ki
Answer each item with its documented pKi.
Answers are plain numbers, as −log10 of the molar value.

// worked examples, pKi included
>>> recorded_result("Cc1cc(CC(=O)Nc2cc([C@H]3CC[C@@H](OC(=O)NC(C)(C)C)C3)[nH]n2)no1")
7.25
>>> recorded_result("CCCNC(=O)O[C@H]1CC[C@@H](c2cc(NC(=O)Cc3cc(C)no3)n[nH]2)C1")
7.72
>>> recorded_result("COc1cc(CC(=O)Nc2cc([C@H]3CC[C@@H](OC(=O)N(C)C(C)C)C3)[nH]n2)ccn1")
8.01
>>> recorded_result("CC[C@H](C)NC(=O)O[C@@H]1CC[C@H](c2cc(NC(=O)Cc3ccc4nc(C)cn4n3)n[nH]2)C1")
7.99
>>> recorded_result("CC[C@H](C)NC(=O)O[C@@H]1CC[C@H](c2cc(NC(=O)Cc3cc(OC)ccc3S(C)(=O)=O)n[nH]2)C1")
6.93
>>> recorded_result("C[C@]1(O)CC[C@@H](NC(=O)O[C@@H]2CC[C@H](c3cc(NC(=O)Cc4cc(F)cc(F)c4)n[nH]3)C2)CC1")
7.62
>>> recorded_result("Cc1ncc(CC(=O)Nc2cc([C@H]3CC[C@@H](OC(=O)N[C@@H]4CCC[C@@H]4C)C3)[nH]n2)s1")
7.55
>>> recorded_result("Cc1cnc(CC(=O)Nc2cc([C@H]3CC[C@@H](OC(=O)N4CCC4(C)C)C3)[nH]n2)cn1")
8.14
>>> recorded_result("COc1ccc(CC(=O)Nc2cc([C@@H]3CC[C@H](OC(=O)N[C@H]4CC[C@@](C)(O)CC4)C3)[nH]n2)cn1")
8.48
>>> recorded_result("CCc1nn2cc(CC(=O)Nc3cc([C@H]4CC[C@@H](OC(=O)N[C@@H](C)CC)C4)[nH]n3)nc2s1")
7.63

Consider the following items and state reported pKi for each.
1. CC[C@H](C)NC(=O)O[C@@H]1CC[C@H](c2cc(NC(=O)Cc3ccon3)n[nH]2)C1
2. CC1(NC(=O)O[C@@H]2CC[C@H](c3cc(NC(=O)Cc4ccc(Cl)cn4)n[nH]3)C2)CC1
3. Cc1cccc(CC(=O)Nc2cc([C@H]3CC[C@@H](OC(=O)NC4(C)CC4)C3)[nH]n2)n1
4. CC[C@H](C)NC(=O)O[C@H]1CC[C@@H](c2cc(NC(=O)c3cnnn3C)n[nH]2)C1
5. COc1ccc(CC(=O)Nc2cc([C@@H]3CC[C@H](OC(=O)N[C@H]4CC[C@H](O)CC4)C3)[nH]n2)nc1
6. Cn1cc(CC(=O)Nc2cc([C@H]3CC[C@@H](OC(=O)NC4(C)CCOCC4)C3)[nH]n2)cn1
7. CC[C@H](C)NC(=O)O[C@@H]1CC[C@H](c2cc(NC(=O)Cc3cc(O)ncc3S(C)(=O)=O)n[nH]2)C1

7.13
7.80
7.77
7.35
8.59
7.11
7.96

Consider the following items and state reported pKi for each.
1. CCN(C)C(=O)O[C@@H]1CC[C@H](c2cc(NC(=O)Cc3ccnc(OC)c3)n[nH]2)C1
2. Cc1cnc(CC(=O)Nc2cc([C@@H]3CC[C@H](OC(=O)NC(C)C)C3)[nH]n2)o1
3. Cc1cc(CC(=O)Nc2cc([C@H]3CC[C@@H](OC(=O)N4[C@@H](C)C[C@@H]4C)C3)[nH]n2)on1
4. COc1ccc(CC(=O)Nc2cc([C@H]3CC[C@@H](OC(=O)N[C@H]4CC[C@@](C)(O)CC4)C3)[nH]n2)cc1
5. COc1cc(CC(=O)Nc2cc([C@H]3CC[C@@H](OC(=O)N[C@@H](C)[C@@H](C)F)C3)[nH]n2)ccn1
6. CCCNC(=O)O[C@@H]1CC[C@H](c2cc(NC(=O)Cc3cnco3)n[nH]2)C1
7. CCCNC(=O)O[C@H]1CC[C@@H](c2cc(NC(=O)Cc3cnc(OC)s3)n[nH]2)C1

1: 8.01; 2: 7.40; 3: 8.08; 4: 7.42; 5: 7.68; 6: 7.47; 7: 7.94

Values from patent US11014911B2
